# TESTED_SYSTEM: T1, human BAFF receptor (BAFFR) (human, UniProt Q96RJ3 1-184)
# T1 construct: On Raji cells (endogenous), on transfected HEK293-hBAFFR cells, and on primary human blood B cells in the functional assays; also called hBAFFR; BR3
# T1 sequence: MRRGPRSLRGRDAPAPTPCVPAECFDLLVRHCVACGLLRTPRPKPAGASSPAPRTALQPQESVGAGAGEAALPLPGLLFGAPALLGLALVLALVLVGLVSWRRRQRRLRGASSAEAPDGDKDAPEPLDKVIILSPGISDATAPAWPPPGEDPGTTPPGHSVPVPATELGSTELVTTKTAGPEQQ
# TEST_DESCRIPTION: FACS titration of Fab on transfected HEK293-hBAFFR cells
RECORDED_ENDPOINT: EC50 (nM)

INSERT INTO assay_data (binder, recorded_endpoint, value_reported) VALUES
  ('MOR07342 Fab (Fab, V domains shown, Human Fab format) VH: QVQLQQSGPGLVKPSQTLSLTCAISGDSVSSNSAAWGWIRQSPGRGLEWLGRIYYRSKWYNNYAVSVKSRITINPDTSKNQFSLQLNSVTPEDTAVYYCARYKWVPKIGVFDSWGQGTLVTVSS VL: DIVLTQSPATLSLSPGERATLSCRASQMIDLRYLSWYQQKPGQAPRLLIYGSSSRATGVPARFSGSGSGTDFTLTISSLEPEDFAVYYCQQFYSSPLTFGQGTKVEIK', 'EC50', 0.18);
